For each entry below, report its pIC50 value.
Biological target: UniProt:O00329
Sequence (O00329 whole entry): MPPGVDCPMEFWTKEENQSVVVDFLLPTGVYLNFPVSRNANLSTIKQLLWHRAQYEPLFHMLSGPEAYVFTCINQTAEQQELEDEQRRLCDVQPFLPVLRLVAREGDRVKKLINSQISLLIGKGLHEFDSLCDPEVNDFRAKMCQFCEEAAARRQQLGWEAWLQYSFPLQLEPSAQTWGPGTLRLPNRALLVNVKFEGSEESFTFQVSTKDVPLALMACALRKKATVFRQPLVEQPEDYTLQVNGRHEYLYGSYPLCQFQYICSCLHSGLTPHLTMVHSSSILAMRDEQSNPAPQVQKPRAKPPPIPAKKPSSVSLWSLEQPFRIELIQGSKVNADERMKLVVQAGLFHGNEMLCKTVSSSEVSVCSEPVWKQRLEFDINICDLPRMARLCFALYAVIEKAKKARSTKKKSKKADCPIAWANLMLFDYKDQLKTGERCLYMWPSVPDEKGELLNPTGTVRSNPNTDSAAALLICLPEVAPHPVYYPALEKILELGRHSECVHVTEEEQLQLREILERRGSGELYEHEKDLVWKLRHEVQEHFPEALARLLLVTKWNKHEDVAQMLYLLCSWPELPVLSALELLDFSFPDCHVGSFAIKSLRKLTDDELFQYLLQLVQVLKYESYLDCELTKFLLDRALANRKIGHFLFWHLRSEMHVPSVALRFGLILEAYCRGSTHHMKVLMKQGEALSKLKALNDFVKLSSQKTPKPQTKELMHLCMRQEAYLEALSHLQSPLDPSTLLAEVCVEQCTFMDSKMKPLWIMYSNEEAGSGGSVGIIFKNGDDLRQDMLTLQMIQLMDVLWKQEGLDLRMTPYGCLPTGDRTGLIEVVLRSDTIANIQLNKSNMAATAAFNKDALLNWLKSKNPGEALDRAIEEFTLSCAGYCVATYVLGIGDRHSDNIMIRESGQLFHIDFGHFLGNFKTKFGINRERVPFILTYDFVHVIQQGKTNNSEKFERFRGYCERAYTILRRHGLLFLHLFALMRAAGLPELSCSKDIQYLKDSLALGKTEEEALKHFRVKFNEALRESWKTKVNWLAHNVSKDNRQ
Sequence (P27986 whole entry partner): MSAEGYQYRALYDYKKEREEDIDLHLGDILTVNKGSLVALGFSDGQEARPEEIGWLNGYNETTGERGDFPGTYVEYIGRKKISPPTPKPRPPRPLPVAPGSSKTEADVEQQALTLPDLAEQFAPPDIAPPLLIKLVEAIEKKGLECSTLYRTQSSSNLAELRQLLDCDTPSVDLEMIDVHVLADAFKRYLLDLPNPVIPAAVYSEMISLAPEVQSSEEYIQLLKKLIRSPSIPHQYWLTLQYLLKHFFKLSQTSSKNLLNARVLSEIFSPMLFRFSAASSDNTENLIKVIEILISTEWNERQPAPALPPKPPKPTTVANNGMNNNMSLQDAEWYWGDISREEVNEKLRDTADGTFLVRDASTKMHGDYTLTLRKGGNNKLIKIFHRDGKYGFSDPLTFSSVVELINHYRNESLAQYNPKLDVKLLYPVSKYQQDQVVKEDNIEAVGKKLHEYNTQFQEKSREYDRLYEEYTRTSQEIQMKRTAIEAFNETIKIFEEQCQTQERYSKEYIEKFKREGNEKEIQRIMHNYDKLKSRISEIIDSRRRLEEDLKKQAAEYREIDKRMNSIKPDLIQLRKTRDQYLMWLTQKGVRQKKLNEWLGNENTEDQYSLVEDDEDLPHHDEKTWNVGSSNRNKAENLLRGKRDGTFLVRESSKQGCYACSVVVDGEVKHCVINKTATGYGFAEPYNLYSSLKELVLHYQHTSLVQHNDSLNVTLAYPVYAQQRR
Assay: In vitro determination of the PI3K enzyme inhibitory activity in the cell free assay (ADP-Glo Kinase Assay), PI3Kδ
Conditions: ATP 80 μM, read-out: PI3K delta inhibition
pIC50: −log10 of the molar value.

# COMPOUND, pIC50
rows = [
    ("CC(Nc1ncnc(N)c1C#N)c1cc2ccccn2c1C1=CCNCC1 (stereo not shown)", "6.00 to 8.00"),
    ("CC(Nc1ncnc(N)c1C#N)c1cc2ccccn2c1-c1ccsc1 (stereo not shown)", "6.00 to 8.00"),
    ("CC(c1cc2ccccn2c1-c1ccc(CN2CCN(C)CC2)cn1)n1nc(-c2cc(O)cc(F)c2)c2c(N)ncnc21 (stereo not shown)", "> 8.00"),
    ("CC(c1c(C#N)c2ccccn2c1-c1cccc(CN(C)C)c1)n1nc(-c2cc(O)cc(F)c2)c2c(N)ncnc21 (stereo not shown)", "> 8.00"),
    ("CC(c1cc2ccccn2c1-c1ccccn1)n1nc(-c2cc(O)cc(C#N)c2)c2c(N)ncnc21 (stereo not shown)", "> 8.00"),
]

Give one value of pIC50 per listed compound.
1. CC(c1cc2ccccn2c1-c1cncs1)n1nc(-c2cc(O)cc(F)c2)c2c(N)ncnc21 (stereo not shown)
2. CC(c1c(C(F)(F)F)c2ccccn2c1-c1ccccn1)n1nc(-c2cc(O)cc(F)c2)c2c(N)ncnc21 (stereo not shown)
3. C[C@H](c1cc2ccccn2c1-c1ccc(CN2CCOCC2)cn1)n1nc(-c2cc(O)cc(F)c2)c2c(N)ncnc21 (single isomer, unassigned) [Example 108b]
4. CCC(Nc1ncnc(N)c1C#N)c1cc2ccccn2c1-c1ccccn1 (stereo not shown)
5. Nc1ncn(Cc2cc3ccccn3c2-c2ccccc2)c2ncnc1-2

Result:
["> 8.00", "> 8.00", "> 8.00", "6.00 to 8.00", "< 6.00"]

Give one value of pIC50 per listed compound.
1. Cc1cccc2cc(C(C)Nc3ncnc(N)c3C#N)c(-c3ccccn3)n12 (stereo not shown)
2. Cc1cc(-c2c(C(C)n3nc(-c4cc(O)cc(F)c4)c4c(N)ncnc43)cc3ccccn23)ccn1 (stereo not shown)
3. CC(c1cc2ccccn2c1-c1ccccn1)n1nc(-c2cccnc2)c2c(N)ncnc21 (stereo not shown)
4. CC(c1cc2ccccn2c1-c1ccc(OCCN2CCOCC2)cn1)n1nc(-c2cc(O)cc(F)c2)c2c(N)ncnc21 (stereo not shown)
5. CC(c1cc2ccccn2c1CN1CCC2(CCCN(C)C2)CC1)n1nc(-c2cc(O)cc(F)c2)c2c(N)ncnc21 (stereo not shown)
6. CC(=O)Nc1cccc(-c2nn(C(C)c3cc4ccccn4c3-c3ccccn3)c3ncnc(N)c23)c1 (stereo not shown)

Result:
1: > 8.00; 2: > 8.00; 3: 6.00 to 8.00; 4: > 8.00; 5: 6.00 to 8.00; 6: < 6.00

###

Biological target: UniProt:P48736
Sequence (P48736 whole entry): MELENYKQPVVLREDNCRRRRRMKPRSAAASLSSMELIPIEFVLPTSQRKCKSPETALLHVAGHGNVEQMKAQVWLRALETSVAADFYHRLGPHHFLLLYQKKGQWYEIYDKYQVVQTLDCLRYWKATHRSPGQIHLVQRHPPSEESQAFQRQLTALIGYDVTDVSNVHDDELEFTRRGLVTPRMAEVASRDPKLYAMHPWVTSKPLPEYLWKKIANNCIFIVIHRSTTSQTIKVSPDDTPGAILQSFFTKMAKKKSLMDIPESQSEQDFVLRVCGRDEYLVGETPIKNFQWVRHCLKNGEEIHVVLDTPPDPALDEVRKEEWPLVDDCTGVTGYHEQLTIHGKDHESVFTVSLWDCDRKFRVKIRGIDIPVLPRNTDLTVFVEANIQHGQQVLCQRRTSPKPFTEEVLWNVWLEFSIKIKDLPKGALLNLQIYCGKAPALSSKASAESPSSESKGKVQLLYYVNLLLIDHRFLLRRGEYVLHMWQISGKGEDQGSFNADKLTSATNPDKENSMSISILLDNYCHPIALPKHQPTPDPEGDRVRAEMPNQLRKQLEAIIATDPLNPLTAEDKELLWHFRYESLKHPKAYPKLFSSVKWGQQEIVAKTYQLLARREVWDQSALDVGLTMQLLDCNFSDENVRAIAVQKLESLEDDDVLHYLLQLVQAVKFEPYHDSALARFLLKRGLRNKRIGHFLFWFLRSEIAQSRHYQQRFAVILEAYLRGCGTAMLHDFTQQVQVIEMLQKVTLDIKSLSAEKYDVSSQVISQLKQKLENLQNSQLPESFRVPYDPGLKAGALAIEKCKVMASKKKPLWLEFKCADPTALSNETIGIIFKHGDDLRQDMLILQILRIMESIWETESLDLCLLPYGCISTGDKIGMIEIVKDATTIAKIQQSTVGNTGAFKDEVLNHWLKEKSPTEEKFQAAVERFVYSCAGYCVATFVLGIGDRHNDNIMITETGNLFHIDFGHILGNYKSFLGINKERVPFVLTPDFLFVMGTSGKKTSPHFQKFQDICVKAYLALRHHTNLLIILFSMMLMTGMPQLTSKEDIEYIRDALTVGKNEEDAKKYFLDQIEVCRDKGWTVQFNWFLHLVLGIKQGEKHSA
Experiment: In vitro determination of the PI3K enzyme inhibitory activity in the cell free assay (ADP-Glo Kinase Assay), PI3Kγ
Conditions: ATP 30 μM, read-out: PI3K gamma inhibition
For each entry below, report its IC50 value.

# COMPOUND, IC50
rows = [
    ("CC(c1cc2ccccn2c1-c1csc(CN2CCOCC2)n1)n1nc(-c2cc(O)cc(F)c2)c2c(N)ncnc21 (stereo not drawn) [Example 130]", "0.01 to 1 µM"),
    ("CC(c1cc2ccccn2c1-c1ccc(CN2CCOCC2)s1)n1nc(-c2cc(O)cc(F)c2)c2c(N)ncnc21 (stereo not drawn) [Example 90]", "0.01 to 1 µM"),
    ("CC(c1cc2ccccn2c1-c1ccc(CN(C)C)cc1)n1nc(-c2cc(O)cc(F)c2)c2c(N)ncnc21 (stereo not drawn) [Example 92]", "> 1 µM"),
    ("CC(Nc1ncnc(N)c1C#N)c1cc2ccccn2c1-c1cnccn1 (stereo not drawn) [Example 35]", "> 1 µM"),
    ("CC(c1cc2ccccn2c1-c1ccccn1)n1nc(-c2cc(O)cc(Cl)c2)c2c(N)ncnc21 (stereo not drawn) [Example 72]", "0.01 to 1 µM"),
]

Give one value of IC50 per listed compound.
1. CC(c1cc2ccccn2c1-c1ccccn1)n1nc(-c2ccccc2)c2c(N)ncnc21 (stereo not drawn) [Example 60]
2. Cc1cccn2c(-c3ccccn3)c(C(C)Nc3ncnc(N)c3C#N)cc12 (stereo not drawn) [Example 41]
3. C[C@H](c1c(C#N)c2ccccn2c1-c1cccc(CN(C)C)c1)n1nc(-c2cc(O)cc(F)c2)c2c(N)ncnc21 (single isomer, unassigned) [Example 127a]
4. Cc1c(C(C)n2nc(-c3cc(O)cc(F)c3)c3c(N)ncnc32)c(-c2ccccn2)n2ccccc12 (stereo not drawn) [Example 89]

Result:
1: > 1 µM; 2: > 1 µM; 3: 0.01 to 1 µM; 4: 0.01 to 1 µM
